Reported GI50 is given for each of the following compounds.
tested on: NCI-60 standardized human tumor cell line panel; assay: cells; assay type: cell-based; conditions: cell line UACC-62 (ME:UACC-62); TMI sheet; read-out: NCI-60 screening: Raw GI50
Don't forget the unit after the value.

| compound | endpointValue |
| --- | --- |
| COc1cc2cc(C(=O)N3CC(CCl)c4c3cc(OC(=O)N3CCN(C)C5CSSCC53)c3ccccc43)[nH]c2c(OC)c1OC (mixture of isomers) [Me-SS66T-CBI-TMI] | 15 nM |
| COc1cc2cc(C(=O)N3C[C@@H](CCl)c4c3cc(OC(=O)N(CCC(=O)N3CCN(C)CC3)C3CCCCC3)c3ccccc43)[nH]c2c(OC)c1OC | 1500 nM |
| COc1cc2cc(C(=O)N3CC(CCl)c4c3cc(OC(=O)N3CCN(C)C5CSSCC53)c3ccccc43)[nH]c2c(OC)c1OC (mixture of isomers) [Me-SS66C-CBI-TMI] | 150 nM |

Next, consider the following compound.
**Q:** // returns reported GI50 for input "COc1cc2cc(C(=O)N3C[C@@H](CCl)c4c3cc(OC(=O)N(CCC(=O)N3CCN(C)CC3)[C@H]3CCSSC3)c3ccccc43)[nH]c2c(OC)c1OC"
**A:** 270 nM

====

test system: panel of 140 standard cancer cell lines; test: ProliFiler-140 cancer cell line screen (CellTiterGlo, 72 h); type: cell-based; details: Homo sapiens, MDA-MB-468, read-out: IC50 [M] (ProliFiler-140), MDA-MB-468 (Breast)
reportedEndpoint: IC50 (M)
Could you give me the number in M? Just the number is fine.

**Q:** // returns reported IC50 for input COc1cc2cc(C(=O)N3C[C@@H](CCl)c4c3cc(OC(=O)N3CCN(C(=O)CCC(=O)N5CCN(C)CC5)[C@H]5CSSC[C@H]53)c3ccccc43)[nH]c2c(OC)c1OC [P-SS66C-CBI-TMI]
**A:** 1.9e-08

====

test system: NCI-60 standardized human tumor cell line panel; assay: cells; assay type: cell-based; conditions: RPMI-8226; read-out: GI50
reportedEndpoint: GI50 (nM)
Could you give me the number in nM? Just the number is fine.

For orientation, consider the following solved cases.
| compound | valueUnit | GI50 |
| --- | --- | --- |
| COc1cc2cc(C(=O)N3C[C@@H](CCl)c4c3cc(OC(=O)N(C)CCSSCCN3CCOCC3)c3ccccc43)[nH]c2c(OC)c1OC [SS00M-CBI-TMI] | nM | 850 |
| COc1cc2cc(C(=O)N3C[C@@H](CCl)c4c3cc(OC(=O)N(CCC(=O)N3CCN(C)CC3)C3CCCCC3)c3ccccc43)[nH]c2c(OC)c1OC | nM | 1500 |
| COc1cc2cc(C(=O)N3CC(CCl)c4c3cc(OC(=O)N3CCN(C)C5CSSCC53)c3ccccc43)[nH]c2c(OC)c1OC (mixture of isomers) [Me-SS66T-CBI-TMI] | nM | 34 |
| COc1cc2cc(C(=O)N3CC(CCl)c4c3cc(OC(=O)N3CCN(C)C5CSSCC53)c3ccccc43)[nH]c2c(OC)c1OC (mixture of isomers) [Me-SS66C-CBI-TMI] | nM | 160 |

**Q:** // returns reported GI50 for input "COc1cc2cc(C(=O)N3C[C@@H](CCl)c4c3cc(OC(=O)N(CCC(=O)N3CCN(C)CC3)[C@H]3CCSSC3)c3ccccc43)[nH]c2c(OC)c1OC"
**A:** 220

====

tested on: NCI-60 standardized human tumor cell line panel; assay: cells; format: cell-based; conditions: LOX IMVI; AZI sheet; read-out: GI50
Reported GI50 is given for each of the following compounds.
Could you give me the number in nM? Just the number is fine.

For orientation, consider the following solved cases.
| compound | GI50 / nM |
| --- | --- |
| CN1CCN(C(=O)Oc2cc3c(c4ccccc24)C(CCl)CN3C(=O)c2cc3cc(OCCCN4CCC4)ccc3[nH]2)C2CSSCC21 (mixture of isomers) [Me-SS66T-CBI-AZI] | 2.2 |
| CN1CCN(C(=O)CCN(C(=O)Oc2cc3c(c4ccccc24)[C@H](CCl)CN3C(=O)c2cc3cc(OCCCN4CCC4)ccc3[nH]2)[C@H]2CCSSC2)CC1 | 86 |
| O=C(c1cc2cc(OCCCN3CCC3)ccc2[nH]1)N1C[C@@H](CCl)c2c1cc(OCc1ccccc1)c1ccccc21 | 56 |

**Q:** // returns reported GI50 for input CN1CCN(C(=O)Oc2cc3c(c4ccccc24)C(CCl)CN3C(=O)c2cc3cc(OCCCN4CCC4)ccc3[nH]2)C2CSSCC21 (mixture of isomers) [Me-SS66C-CBI-AZI]
**A:** 3.2

**Q:** Entry to check: CN(CCSSCCN1CCOCC1)C(=O)Oc1cc2c(c3ccccc13)[C@H](CCl)CN2C(=O)c1cc2cc(OCCCN3CCC3)ccc2[nH]1 [SS00M-CBI-AZI]
**A:** 8.7

====

system: panel of 140 standard cancer cell lines; assay: ProliFiler-140 cancer cell line screen (CellTiterGlo, 72 h); assay type: cell-based; settings: KG-1 (Blood); read-out: IC50 [M] (ProliFiler-140)
reportedEndpoint: IC50 (M)
Could you give me the number in M? Just the number is fine.

**Q:** // returns reported IC50 for input COc1cccc2c1C(=O)c1c(O)c3c(c(O)c1C2=O)C[C@@](O)(C(=O)CO)C[C@@H]3O[C@H]1C[C@H](N)[C@H](O)[C@H](C)O1 [doxorubicin, reference compound]
**A:** 1.21e-06

====

tested on: panel of 140 standard cancer cell lines; test: ProliFiler-140 cancer cell line screen (CellTiterGlo, 72 h); format: cell-based; details: Homo sapiens, BXPC-3, BxPC-3 (Pancreas); read-out: IC50 [M] (ProliFiler-140)
reportedEndpoint: IC50 (M)
Could you give me the number in M? Just the number is fine.

**Q:** // returns reported IC50 for input COc1cccc2c1C(=O)c1c(O)c3c(c(O)c1C2=O)C[C@@](O)(C(=O)CO)C[C@@H]3O[C@H]1C[C@H](N)[C@H](O)[C@H](C)O1 [doxorubicin, reference compound]
**A:** 2.78e-07

====

Reported GI50 is given for each of the following compounds.
test system: NCI-60 standardized human tumor cell line panel; experiment: cells; type: cell-based; settings: SR; AZI sheet; read-out: GI50
Could you give me the number in nM? Just the number is fine.

For orientation, consider the following solved cases.
| compound | GI50 (nM) |
| --- | --- |
| CN(CCSSCCN1CCOCC1)C(=O)Oc1cc2c(c3ccccc13)[C@H](CCl)CN2C(=O)c1cc2cc(OCCCN3CCC3)ccc2[nH]1 [SS00M-CBI-AZI] | 7.4 |
| O=C(c1cc2cc(OCCCN3CCC3)ccc2[nH]1)N1C[C@@H](CCl)c2c1cc(OCc1ccccc1)c1ccccc21 [OBn-CBI-AZI] | 44 |
| CN1CCN(C(=O)Oc2cc3c(c4ccccc24)C(CCl)CN3C(=O)c2cc3cc(OCCCN4CCC4)ccc3[nH]2)C2CSSCC21 (mixture of isomers) [Me-SS66C-CBI-AZI] | 2.7 |
| CN1CCN(C(=O)Oc2cc3c(c4ccccc24)C(CCl)CN3C(=O)c2cc3cc(OCCCN4CCC4)ccc3[nH]2)C2CSSCC21 (mixture of isomers) [Me-SS66T-CBI-AZI] | 1.7 |

Next, consider the following compound.
**Q:** Checklist item: GI50 tested on NCI-60 standardized human tumor cell line panel, entry CN1CCN(C(=O)CCN(C(=O)Oc2cc3c(c4ccccc24)[C@H](CCl)CN3C(=O)c2cc3cc(OCCCN4CCC4)ccc3[nH]2)[C@H]2CCSSC2)CC1 [P-SS60-CBI-AZI] , value?
**A:** 66

====

test system: panel of 140 standard cancer cell lines; experiment: ProliFiler-140 cancer cell line screen (CellTiterGlo, 72 h); type: cell-based; conditions: Homo sapiens, U2OS, read-out: IC50 [M] (ProliFiler-140), U2OS (Bone)
reportedEndpoint: IC50 (M)
Could you give me the number in M? Just the number is fine.

**Q:** // returns reported IC50 for input COc1cc2cc(C(=O)N3C[C@@H](CCl)c4c3cc(OC(=O)N3CCN(C(=O)CCC(=O)N5CCN(C)CC5)[C@H]5CSSC[C@H]53)c3ccccc43)[nH]c2c(OC)c1OC [P-SS66C-CBI-TMI]
**A:** 3.19e-08

====

system: panel of 140 standard cancer cell lines; test: ProliFiler-140 cancer cell line screen (CellTiterGlo, 72 h); assay type: cell-based; conditions: read-out: IC50 [M] (ProliFiler-140), LP-1 (Blood)
reportedEndpoint: IC50 (M)
Could you give me the number in M? Just the number is fine.

**Q:** // returns reported IC50 for input COc1cc2cc(C(=O)N3C[C@@H](CCl)c4c3cc(OC(=O)N3CCN(C(=O)CCC(=O)N5CCN(C)CC5)[C@H]5CSSC[C@H]53)c3ccccc43)[nH]c2c(OC)c1OC [P-SS66C-CBI-TMI]
**A:** 1e-07
